target: ER (Homo sapiens (Human), UniProt P03372); experiment: Western blot analysis (Compounds B1-B278); format: cell-based; details: ER degradation by traditional Western blot; DC50 classes
Sequence (P03372 whole entry): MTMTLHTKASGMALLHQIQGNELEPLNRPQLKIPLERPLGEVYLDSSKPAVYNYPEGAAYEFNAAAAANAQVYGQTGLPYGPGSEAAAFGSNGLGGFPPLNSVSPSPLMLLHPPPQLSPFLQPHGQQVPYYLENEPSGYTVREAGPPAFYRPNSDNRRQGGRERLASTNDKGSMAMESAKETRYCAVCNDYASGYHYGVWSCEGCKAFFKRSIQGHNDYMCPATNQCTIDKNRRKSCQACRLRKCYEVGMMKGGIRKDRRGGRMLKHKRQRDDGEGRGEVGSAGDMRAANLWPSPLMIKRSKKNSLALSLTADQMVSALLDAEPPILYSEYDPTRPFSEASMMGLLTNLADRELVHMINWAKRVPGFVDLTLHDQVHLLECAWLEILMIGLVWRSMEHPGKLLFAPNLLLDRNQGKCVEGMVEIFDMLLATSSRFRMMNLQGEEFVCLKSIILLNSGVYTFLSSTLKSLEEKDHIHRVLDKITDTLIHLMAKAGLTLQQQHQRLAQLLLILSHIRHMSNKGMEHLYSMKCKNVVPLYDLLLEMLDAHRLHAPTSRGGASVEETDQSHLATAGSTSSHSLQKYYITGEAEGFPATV
metricName: Traditional Western Degradation Potency

Sample answers from the record:
INSERT INTO assay_data (compound, result) VALUES
  ('C[C@@H]1Cc2c([nH]c3ccccc23)[C@@H](c2c(F)cc(N3CCC(C(=O)N4CCC(N5Cc6cc7c(cc6C5)C(=O)N(C5CCC(=O)NC5=O)C7=O)CC4)CC3)cc2F)N1CC(C)(F)F (stereo partly shown) [Compound B214]', 'A (“A”: <10 nM)'),
  ('C[C@@H]1Cc2c([nH]c3ccccc23)[C@@H](c2c(F)cc(-c3ncc(C(=O)N4CCC(N5Cc6cc7c(cc6C5)C(=O)N(C5CCC(=O)NC5=O)C7=O)CC4)cn3)cc2F)N1CC(F)F (stereo partly shown) [Compound B92]', 'A (“A”: <10 nM)'),
  ('C[C@@H]1Cc2c([nH]c3ccccc23)[C@@H](c2c(F)cc(N3CC4(CC(C(=O)N5CCC(N6Cc7cc8c(cc7C6)C(=O)N(C6CCC(=O)NC6=O)C8=O)CC5)C4)C3)cc2F)N1CC(F)F (stereo partly shown) [Compound B56]', 'A (“A”: <10 nM)'),
  ('C[C@@H]1Cc2c([nH]c3ccccc23)[C@@H](c2ccc(N3CCC4(CCN(C(=O)CN5Cc6cc7c(cc6C5)C(=O)N(C5CCC(=O)NC5=O)C7=O)CC4)CC3)cc2)N1CC(F)F (stereo partly shown) [Compound B227]', 'B (“B”: 10-100 nM)'),
  ('C[C@@H]1Cc2c([nH]c3ccccc23)[C@@H](c2c(F)cc(N3CCC(C(=O)N4CCC(N5Cc6cc7c(cc6C5)C(=O)N(C5CCC(=O)NC5=O)C7=O)CC4)CC3)cc2F)N1CC(F)F (stereo partly shown) [Compound B54]', 'A (“A”: <10 nM)');

# Traditional Western Degradation Potency of COc1cc(C2CCC(C(=O)N3CCC(N4Cc5cc6c(cc5C4)C(=O)N(C4CCC(=O)NC4=O)C6=O)CC3)CC2)cnc1[C@@H]1c2[nH]c3ccccc3c2C[C@@H](C)N1CC(F)F (stereo partly shown) [Compound B115] = C (“C”: >100 nM)

So for C[C@@H]1Cc2c([nH]c3ccccc23)[C@@H](c2c(F)cc(C(=O)N3CCC4(CC3)CC(CN3Cc5cc6c(cc5C3)C(=O)N(C3CCC(=O)NC3=O)C6=O)C4)cc2F)N1CC(F)F (stereo partly shown) [Compound B97] , the logged Traditional Western Degradation Potency turned out to be C (“C”: >100 nM)

Item: C[C@@H]1Cc2c([nH]c3ccccc23)[C@@H](c2c(F)cc(-c3ccc(CN4CCC(N5Cc6cc7c(cc6C5)C(=O)N(C5CCC(=O)NC5=O)C7=O)CC4)nc3)cc2F)N1CC(F)F (stereo partly shown) [Compound B88] | Traditional Western Degradation Potency: C (“C”: >100 nM)

Traditional Western Degradation Potency reading for C[C@@H]1Cc2c([nH]c3ccccc23)[C@@H](c2cnc(C3=CCC(C(=O)N4CCC(N5Cc6cc7c(cc6C5)C(=O)N(C5CCC(=O)NC5=O)C7=O)CC4)CC3)nc2)N1CC(F)F (stereo partly shown) [Compound B236] : B (“B”: 10-100 nM)

Traditional Western Degradation Potency reading for C[C@@H]1Cc2c([nH]c3ccccc23)[C@@H](c2ccc(N3CCC(CN4CCC(N5Cc6cc7c(cc6C5)C(=O)N(C5CCC(=O)NC5=O)C7=O)CC4)CC3)cc2)N1CC(F)F (stereo partly shown) [Compound B226] : B (“B”: 10-100 nM)
